- system: p110α/p85α (Homo sapiens (Human), UniProt P42336)
- Sequence (P42336 whole entry): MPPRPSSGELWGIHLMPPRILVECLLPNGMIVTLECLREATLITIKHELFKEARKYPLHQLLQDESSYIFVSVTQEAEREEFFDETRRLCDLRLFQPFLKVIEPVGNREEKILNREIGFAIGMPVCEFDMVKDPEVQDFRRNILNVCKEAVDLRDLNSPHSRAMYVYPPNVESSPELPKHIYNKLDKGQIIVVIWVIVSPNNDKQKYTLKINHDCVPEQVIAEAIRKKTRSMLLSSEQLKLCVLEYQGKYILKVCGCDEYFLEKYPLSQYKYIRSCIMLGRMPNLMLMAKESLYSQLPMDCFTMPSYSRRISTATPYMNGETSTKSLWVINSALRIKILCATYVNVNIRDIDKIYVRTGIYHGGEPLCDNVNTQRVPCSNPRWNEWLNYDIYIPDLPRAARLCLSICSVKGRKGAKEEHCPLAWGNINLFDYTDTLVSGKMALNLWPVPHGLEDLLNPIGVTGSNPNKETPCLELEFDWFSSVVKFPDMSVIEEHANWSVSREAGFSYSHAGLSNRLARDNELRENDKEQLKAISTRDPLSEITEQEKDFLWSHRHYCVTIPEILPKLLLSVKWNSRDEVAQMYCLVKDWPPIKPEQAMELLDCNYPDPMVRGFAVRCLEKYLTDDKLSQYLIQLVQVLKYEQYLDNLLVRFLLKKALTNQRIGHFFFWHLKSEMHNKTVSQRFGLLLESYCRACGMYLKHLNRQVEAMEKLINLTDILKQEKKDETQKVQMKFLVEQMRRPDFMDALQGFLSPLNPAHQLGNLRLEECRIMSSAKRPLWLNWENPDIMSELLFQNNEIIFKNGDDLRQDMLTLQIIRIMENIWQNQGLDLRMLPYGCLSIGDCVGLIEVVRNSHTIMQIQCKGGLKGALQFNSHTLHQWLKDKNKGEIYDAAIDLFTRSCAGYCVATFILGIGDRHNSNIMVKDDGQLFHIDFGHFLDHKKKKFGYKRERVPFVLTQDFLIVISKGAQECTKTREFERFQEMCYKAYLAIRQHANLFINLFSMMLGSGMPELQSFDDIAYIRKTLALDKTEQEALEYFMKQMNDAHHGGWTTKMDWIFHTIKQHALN
- Sequence (P27986 whole entry partner): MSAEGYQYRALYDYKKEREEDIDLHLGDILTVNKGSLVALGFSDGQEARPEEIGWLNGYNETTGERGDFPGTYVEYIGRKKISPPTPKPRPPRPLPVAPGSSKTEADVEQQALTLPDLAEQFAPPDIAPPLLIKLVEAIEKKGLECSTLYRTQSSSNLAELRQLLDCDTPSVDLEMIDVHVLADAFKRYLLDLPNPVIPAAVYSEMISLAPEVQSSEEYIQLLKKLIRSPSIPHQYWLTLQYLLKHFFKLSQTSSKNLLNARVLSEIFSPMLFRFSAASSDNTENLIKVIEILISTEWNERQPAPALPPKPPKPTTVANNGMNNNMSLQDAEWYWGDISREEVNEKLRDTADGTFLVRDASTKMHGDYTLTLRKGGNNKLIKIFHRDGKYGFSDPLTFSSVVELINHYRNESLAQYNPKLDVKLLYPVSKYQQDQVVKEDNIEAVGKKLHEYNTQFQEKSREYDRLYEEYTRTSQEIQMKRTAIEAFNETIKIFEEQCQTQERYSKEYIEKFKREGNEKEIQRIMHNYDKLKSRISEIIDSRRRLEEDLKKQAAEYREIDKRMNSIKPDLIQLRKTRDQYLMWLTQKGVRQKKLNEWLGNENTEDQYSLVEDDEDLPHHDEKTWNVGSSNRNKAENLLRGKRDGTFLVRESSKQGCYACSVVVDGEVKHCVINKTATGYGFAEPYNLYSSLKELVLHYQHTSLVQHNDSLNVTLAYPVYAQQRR
- procedure_details: PI 3-Kinase (human) HTRF assay, p110α/p85α
- Format: biochemical
- experimental_conditions: read-out: PI3K α IC50
pIC50: −log10 of the molar value.
Entries and their measured pIC50 follow.

The following molecules have reported results that may help.
Nc1nc2cc(-c3ccc4ncn(CCO)c(=O)c4c3)ccc2o1 : > 7.00
N#Cc1cnc2ccc(-c3ccc4oc(N)nc4c3)cc2c1-c1ccncc1 : > 7.00
Nc1nc2cc(-c3ccc4nccc(CCN5CCOCC5)c4c3)ccc2o1 : > 6.00

[in] Data request, read-out pIC50, for CCN1CCC(n2cnc3ccc(-c4ccc5oc(N)nc5c4)cc3c2=O)CC1
[out] > 6.00

###

- system: p110β/p85α (Homo sapiens (Human), UniProt P42338)
- Sequence (P42338 whole entry, one chain of several): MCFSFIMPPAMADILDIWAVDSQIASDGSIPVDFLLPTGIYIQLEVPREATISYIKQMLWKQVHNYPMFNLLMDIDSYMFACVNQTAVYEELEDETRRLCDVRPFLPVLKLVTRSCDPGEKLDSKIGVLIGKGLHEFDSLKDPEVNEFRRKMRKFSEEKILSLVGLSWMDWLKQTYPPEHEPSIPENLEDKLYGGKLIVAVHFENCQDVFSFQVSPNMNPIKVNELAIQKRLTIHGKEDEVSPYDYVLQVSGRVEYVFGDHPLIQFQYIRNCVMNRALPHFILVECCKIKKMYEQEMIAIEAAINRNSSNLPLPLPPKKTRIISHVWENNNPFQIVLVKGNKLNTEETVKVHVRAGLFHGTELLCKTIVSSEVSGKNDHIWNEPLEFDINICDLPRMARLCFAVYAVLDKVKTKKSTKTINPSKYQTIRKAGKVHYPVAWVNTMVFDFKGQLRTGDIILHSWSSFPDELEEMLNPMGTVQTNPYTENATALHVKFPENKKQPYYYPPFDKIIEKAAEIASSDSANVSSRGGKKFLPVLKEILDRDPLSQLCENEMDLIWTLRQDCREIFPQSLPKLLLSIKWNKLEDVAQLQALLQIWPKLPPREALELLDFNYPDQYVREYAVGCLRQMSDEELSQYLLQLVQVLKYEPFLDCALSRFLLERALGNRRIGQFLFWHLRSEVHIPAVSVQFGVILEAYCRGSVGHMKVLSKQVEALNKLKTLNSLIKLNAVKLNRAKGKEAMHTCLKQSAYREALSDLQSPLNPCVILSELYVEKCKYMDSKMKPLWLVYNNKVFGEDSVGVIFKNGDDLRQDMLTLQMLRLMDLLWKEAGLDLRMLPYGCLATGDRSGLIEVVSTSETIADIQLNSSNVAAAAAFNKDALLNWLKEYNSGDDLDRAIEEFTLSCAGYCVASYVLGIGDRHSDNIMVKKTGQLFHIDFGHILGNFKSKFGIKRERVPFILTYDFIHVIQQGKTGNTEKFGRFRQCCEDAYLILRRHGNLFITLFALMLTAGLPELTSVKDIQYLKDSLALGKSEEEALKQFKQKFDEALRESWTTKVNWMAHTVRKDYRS
- procedure_details: PI 3-Kinase (human) HTRF assay, p110β/p85α
- Format: biochemical
- experimental_conditions: in vitro; read-out: PI3K β IC50
attribute_measured: IC50

Some compounds with recorded IC50:
C[C@H]1CN(c2cnc3ccc(-c4ccc5sc(N)nc5c4)cc3n2)CCN1 [compound 307] : < 1 µM
Nc1nc2cc(-c3ccn4ncc(C(=O)N5CCOCC5)c4c3)ccc2o1 [compound 347] : < 10 µM
CCN(CC)C1CN(c2cnc3ccc(-c4ccc5oc(N)nc5c4)cc3n2)C1 [compound 324] : < 10 µM

[in] // query IC50 value for entry Nc1nc2cc(-c3ccc4ncc(N5CC(N6CCNCC6)C5)nc4c3)ccc2o1 [compound 326]
[out] < 1 µM

[in] Another compound: CC(=O)Nc1cn2cc(-c3ccc4oc(N)nc4c3)ccc2n1 [compound 234]
[out] < 1 µM

[in] Repeat for the following compound: CN(C)C1CN(c2cnc3ccc(-c4ccc5oc(N)nc5c4)cc3n2)C1 [compound 366]
[out] < 10 µM

[in] Field entry: Nc1nc2cc(-c3ccc4ncc(N5CC(N6CC[C@@H](O)C6)C5)nc4c3)ccc2o1 [compound 315]
[out] < 10 µM

[in] For CS(=O)(=O)CCN1CCC(NC(=O)c2cnc3ccc(-c4ccc5oc(N)nc5c4)cn23)CC1 [compound 199] then?
[out] < 10 µM

###

- system: p110γ (Homo sapiens (Human), UniProt P48736)
- Sequence (P48736 whole entry): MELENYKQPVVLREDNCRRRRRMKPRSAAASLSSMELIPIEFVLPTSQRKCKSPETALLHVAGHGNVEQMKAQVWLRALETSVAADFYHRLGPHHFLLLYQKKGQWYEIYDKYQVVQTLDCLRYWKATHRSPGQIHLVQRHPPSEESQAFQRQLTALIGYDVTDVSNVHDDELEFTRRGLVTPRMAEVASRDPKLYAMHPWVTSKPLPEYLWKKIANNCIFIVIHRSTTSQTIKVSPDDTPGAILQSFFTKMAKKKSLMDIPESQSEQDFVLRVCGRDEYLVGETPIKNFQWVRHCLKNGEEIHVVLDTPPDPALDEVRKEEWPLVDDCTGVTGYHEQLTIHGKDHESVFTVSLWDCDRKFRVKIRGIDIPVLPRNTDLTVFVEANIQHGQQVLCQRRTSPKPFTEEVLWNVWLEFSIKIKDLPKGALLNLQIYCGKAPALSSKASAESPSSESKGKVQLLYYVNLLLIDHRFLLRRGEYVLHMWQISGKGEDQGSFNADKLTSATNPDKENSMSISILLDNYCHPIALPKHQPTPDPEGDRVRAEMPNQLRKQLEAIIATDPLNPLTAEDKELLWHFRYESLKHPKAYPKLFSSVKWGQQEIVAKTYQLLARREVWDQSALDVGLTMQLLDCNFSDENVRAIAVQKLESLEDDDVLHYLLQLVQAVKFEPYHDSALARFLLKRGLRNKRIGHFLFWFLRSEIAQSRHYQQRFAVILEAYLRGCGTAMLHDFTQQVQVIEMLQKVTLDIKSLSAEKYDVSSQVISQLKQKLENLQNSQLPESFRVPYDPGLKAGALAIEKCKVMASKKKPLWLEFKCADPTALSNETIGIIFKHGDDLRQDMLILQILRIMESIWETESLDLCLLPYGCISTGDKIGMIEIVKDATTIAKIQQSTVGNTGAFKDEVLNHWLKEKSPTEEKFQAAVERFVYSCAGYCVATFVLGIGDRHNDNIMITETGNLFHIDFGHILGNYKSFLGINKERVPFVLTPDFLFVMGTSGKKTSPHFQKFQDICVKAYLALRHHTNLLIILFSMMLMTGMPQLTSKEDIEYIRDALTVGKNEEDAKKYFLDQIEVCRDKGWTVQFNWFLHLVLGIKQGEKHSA
- procedure_details: PI 3-Kinase (human) HTRF assay, p110γ
- Assay type: biochemical
- experimental_conditions: read-out: PI3K γ IC50
pIC50: −log10 of the molar value.
attribute_measured: pIC50

Guide cases for pIC50, answers given:
Nc1nc2cc(-c3ccc4ncc(C(=O)N5CCOCC5)n4c3)ccc2o1 : > 5.00
Nc1nc2cc(-c3ccc4ncc(N5CCOCC5)nc4c3)ccc2o1 : > 7.00

[in] Using the record for Nc1nsc2cc(-c3ccc4nccc(-c5ccncc5)c4c3)ccc12 , report its pIC50.
[out] > 6.00

[in] Try this compound next: CS(=O)(=O)N1CCN(Cc2cc3nc(-c4ccc5oc(N)nc5c4)nc(N4CCOCC4)c3s2)CC1
[out] > 7.00

[in] Check CN1CCN(C(=O)c2cnc3ccc(-c4ccc5nc(N)oc5c4)cn23)CC1 too.
[out] > 5.00

[in] Note, next up: C[C@@H]1CN(C(=O)c2cnc3ccc(-c4ccc5oc(N)nc5c4)cn23)C[C@H](C)O1
[out] > 5.00

###

Recorded measurements of IC50, one per entry
- system: p110α/p85α (Homo sapiens (Human), UniProt P42336)
- procedure_details: PI 3-Kinase (human) HTRF assay, p110α/p85α
- Format: biochemical
- experimental_conditions: read-out: PI3K α IC50

CC1CN(C(=O)c2cnc3ccc(-c4ccc5oc(N)nc5c4)cn23)CC(C)N1 (stereo not shown) : < 10000 nM
Nc1nc2cc(-c3ccc4ncc(N5CCS(=O)(=O)CC5)nc4c3)ccc2o1 : < 100 nM
CCN1CCN(c2cnc3ccc(-c4ccc5oc(N)nc5c4)cc3n2)CC1 : < 100 nM

// next item, IC50 requested
[in] Which IC50 is listed for CS(=O)(=O)N1CCC(n2cnc3ccc(-c4ccc5oc(N)nc5c4)cc3c2=O)CC1 ?
[out] < 1000 nM

###

pIC50 overview
- system: p110γ (Homo sapiens (Human), UniProt P48736)
- procedure_details: PI 3-Kinase (human) HTRF assay, p110γ
- Assay type: biochemical
- experimental_conditions: read-out: PI3K γ IC50
pIC50: −log10 of the molar value.

Below, 3 compounds whose answers are already recorded.
Nc1nc2ccc(-c3ccc4nccc(-c5ccncc5)c4c3)cc2o1 : > 7.00
Nc1nc2cc(-c3ccc4nccc(N5CCOCC5)c4c3)ccc2o1 : > 7.00
Nc1nc2cc(-c3ccc4ncc(N5CCC(N6CCOCC6)CC5)nc4c3)ccc2o1 : > 6.00

[in] Form: Entry = Nc1nc2ccc(-c3ccc4ncc(N5CCOCC5)nc4c3)cc2o1 | System = p110γ (Homo sapiens (Human), UniProt P48736) | pIC50 = ____
[out] > 6.00

[in] And what about the compound CS(=O)(=O)N1CCC(Nc2cnc3ccc(-c4ccc5oc(N)nc5c4)cc3n2)CC1 ?
[out] > 7.00

[in] One more compound: Nc1nc2cc(-c3ccc4ncc(C(=O)N5CCOCC5)n4c3)ccc2s1
[out] > 6.00

[in] Param item: Nc1nc2cc(-c3ccc4ncc(C(=O)NC5CCOCC5)n4c3)ccc2o1
[out] > 7.00

[in] Could you do the same for Nc1nc2cc(-c3ccc4ncc(C(=O)N5CCC(N6CCOCC6)CC5)n4c3)ccc2o1 , please?
[out] > 5.00

[in] Repeat for the following compound: Nc1nc2cc(-c3ccc4ncc(C(=O)Nc5cccnc5)n4c3)ccc2o1
[out] > 7.00

[in] Can you handle CN1CCN(C(=O)C2CN(c3cnc4ccc(-c5ccc6oc(N)nc6c5)cc4n3)C2)CC1 next?
[out] > 5.00

[in] Another compound to look at: CN1CCN(c2cnc3ccc(-c4ccc5sc(N)nc5c4)cc3n2)CC1
[out] > 5.00

[in] Then this compound: Nc1nc2cc(-c3c[nH]c4nccc(-c5ccncc5)c34)ccc2o1
[out] > 5.00

[in] Lookup CCN1CCN(C(=O)c2cnc3ccc(-c4ccc5oc(N)nc5c4)cn23)CC1
[out] > 5.00

[in] Try CC(N)C(=O)N1CCN(c2cnc3ccc(-c4ccc5oc(N)nc5c4)cc3n2)CC1 (centres unmarked) next.
[out] > 5.00

[in] Now consider Nc1nc2cc(-c3ccc4ncc(C(=O)N5CCN(CC6CC6)CC5)n4c3)ccc2o1 .
[out] > 5.00

[in] Try the compound CC(=O)N1CCN(c2cnc3ccc(-c4ccc5oc(N)nc5c4)cc3n2)CC1
[out] > 7.00

[in] What do you have for NCC(=O)N1CCN(c2cnc3ccc(-c4ccc5oc(N)nc5c4)cc3n2)CC1 ?
[out] > 6.00

###

- system: p110δ/p85α (Homo sapiens (Human), UniProt O00329)
- Sequence (O00329 whole entry, one chain of several): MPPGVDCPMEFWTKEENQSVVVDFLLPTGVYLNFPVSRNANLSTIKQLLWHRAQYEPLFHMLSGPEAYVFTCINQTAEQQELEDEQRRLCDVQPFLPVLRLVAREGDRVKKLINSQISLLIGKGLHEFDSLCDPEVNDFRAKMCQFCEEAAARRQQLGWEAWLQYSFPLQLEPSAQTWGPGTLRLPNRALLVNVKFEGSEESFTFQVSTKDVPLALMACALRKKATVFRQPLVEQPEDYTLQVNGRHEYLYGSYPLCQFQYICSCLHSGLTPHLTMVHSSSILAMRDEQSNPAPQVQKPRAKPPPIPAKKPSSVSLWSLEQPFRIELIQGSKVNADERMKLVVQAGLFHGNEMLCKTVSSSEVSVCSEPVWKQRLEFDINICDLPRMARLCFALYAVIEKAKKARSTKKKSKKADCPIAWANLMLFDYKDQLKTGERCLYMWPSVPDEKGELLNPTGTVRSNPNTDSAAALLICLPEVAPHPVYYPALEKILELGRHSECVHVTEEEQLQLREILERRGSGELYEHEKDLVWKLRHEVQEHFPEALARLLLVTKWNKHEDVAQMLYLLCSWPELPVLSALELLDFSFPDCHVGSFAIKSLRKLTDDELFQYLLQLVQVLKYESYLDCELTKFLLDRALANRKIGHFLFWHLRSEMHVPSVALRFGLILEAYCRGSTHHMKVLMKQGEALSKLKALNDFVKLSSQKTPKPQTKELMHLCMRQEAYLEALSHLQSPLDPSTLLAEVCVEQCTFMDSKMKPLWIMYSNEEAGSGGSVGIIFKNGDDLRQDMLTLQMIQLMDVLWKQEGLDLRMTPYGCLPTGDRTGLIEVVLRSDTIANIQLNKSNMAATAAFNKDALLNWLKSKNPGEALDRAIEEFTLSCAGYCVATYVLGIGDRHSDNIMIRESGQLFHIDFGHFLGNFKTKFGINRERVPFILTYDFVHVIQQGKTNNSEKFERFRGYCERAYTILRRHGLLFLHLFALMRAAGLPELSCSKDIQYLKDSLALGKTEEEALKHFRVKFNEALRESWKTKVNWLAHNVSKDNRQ
- procedure_details: PI 3-Kinase (human) HTRF assay, p110δ/p85α
- Format: biochemical
- experimental_conditions: in vitro; read-out: PI3K δ IC50
attribute_measured: IC50

Consider the following illustrative entries.
Nc1nc2cc(-c3ccc4ncc(N5CC(C(=O)N6CCN(CC7CC7)CC6)C5)nc4c3)ccc2o1 [compound 287] : < 1000 nM
Nc1nc2cc(-c3ccc4ncc(N5CC(N6CCOCC6)C5)nc4c3)cc(Cl)c2o1 [compound 358] : < 1000 nM
CCN1CCN(C2CN(c3cnc4ccc(-c5ccc6oc(N)nc6c5)cc4n3)C2)CC1 [compound 329] : < 1000 nM
Cc1ccn(C2CN(c3cnc4ccc(-c5ccc6oc(N)nc6c5)cc4n3)C2)n1 [compound 320] : < 10000 nM
CN1CCN([C@H]2CCN(c3cnc4ccc(-c5ccc6oc(N)nc6c5)cc4n3)C2)CC1 [compound 381] : < 10000 nM

# context switch: different molecule, same IC50
[in] Form field: IC50 recorded for Nc1nc2cc(-c3ccc4ncc(N5CCn6cccc6C5)nc4c3)ccc2o1 [compound 394] with p110δ/p85α (Homo sapiens (Human), UniProt O00329) (enter value)
[out] < 1000 nM

###

Below: a set of entries, each annotated with reported pIC50.
- system: p110δ/p85α (Homo sapiens (Human), UniProt O00329)
- procedure_details: PI 3-Kinase (human) HTRF assay, p110δ/p85α
- Assay type: biochemical
- experimental_conditions: read-out: PI3K δ In Vitro IC50
pIC50: −log10 of the molar value.

Consider the reported pIC50 for these molecules:
Nc1nc2cc(-c3ccc4ncc(C(=O)N5CC[C@@H](n6cccn6)C5)n4c3)ccc2o1 : > 5.00
Nc1nc2cc(-c3ccc4ncc(C(=O)N5CC[C@H](n6cccn6)C5)n4c3)ccc2o1 : > 6.00

Could you now consider this next molecule?
[in] Consider the molecule CS(=O)(=O)Nc1cc(-c2ccc3ncc(C(=O)N4CCOCC4)n3c2)cnc1Cl and give its measured pIC50.
[out] > 7.00

Values compiled from patent US11547697B2.
